assay-system: NAE enzyme (human recombinant APPBP1/UBA3) (Homo sapiens (Human), UniProt Q8TBC4)
Sequence (Q8TBC4 whole entry): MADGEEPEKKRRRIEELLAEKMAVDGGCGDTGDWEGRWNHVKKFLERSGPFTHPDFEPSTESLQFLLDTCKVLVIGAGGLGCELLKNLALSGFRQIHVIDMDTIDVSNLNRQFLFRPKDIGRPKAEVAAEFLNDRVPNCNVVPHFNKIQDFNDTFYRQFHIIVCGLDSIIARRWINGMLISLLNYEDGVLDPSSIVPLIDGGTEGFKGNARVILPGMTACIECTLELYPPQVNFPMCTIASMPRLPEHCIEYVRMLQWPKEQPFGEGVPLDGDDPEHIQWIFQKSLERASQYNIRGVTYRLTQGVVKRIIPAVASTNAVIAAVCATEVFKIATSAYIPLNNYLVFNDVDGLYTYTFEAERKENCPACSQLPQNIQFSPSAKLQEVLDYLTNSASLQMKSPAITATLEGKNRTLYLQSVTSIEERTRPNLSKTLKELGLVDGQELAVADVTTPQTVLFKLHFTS
Sequence (Q13564 whole entry partner): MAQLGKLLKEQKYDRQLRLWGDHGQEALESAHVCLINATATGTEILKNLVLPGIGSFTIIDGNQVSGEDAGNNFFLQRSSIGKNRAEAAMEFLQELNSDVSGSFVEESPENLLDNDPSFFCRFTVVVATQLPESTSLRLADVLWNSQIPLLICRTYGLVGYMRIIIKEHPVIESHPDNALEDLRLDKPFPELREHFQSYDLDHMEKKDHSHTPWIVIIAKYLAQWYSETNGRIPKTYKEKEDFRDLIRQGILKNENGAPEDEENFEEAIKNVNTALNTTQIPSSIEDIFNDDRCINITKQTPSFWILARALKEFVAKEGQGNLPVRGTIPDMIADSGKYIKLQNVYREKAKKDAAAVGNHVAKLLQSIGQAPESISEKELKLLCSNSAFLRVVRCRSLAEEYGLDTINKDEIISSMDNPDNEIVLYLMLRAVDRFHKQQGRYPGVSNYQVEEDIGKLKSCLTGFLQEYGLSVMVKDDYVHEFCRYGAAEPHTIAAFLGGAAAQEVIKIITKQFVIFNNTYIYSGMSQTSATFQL
assay-overview: Inhibition of NAE enzyme activity at the molecular level (HTRF)
Format: biochemical
conditions: 2 h; read-out: IR (10 μM)
parameter-measured: inhibition at 10 µM (%)
Just the number please, in %, no unit attached.

Here are 3 molecules together with their reported answers.
[[record]]
molecule = "NS(=O)(=O)OCC1CC(n2nnc3c(Nc4cnc5ccccn45)ncnc32)CC1O (centres unmarked) [Compound S19]"
assay_system = "NAE enzyme (human recombinant APPBP1/UBA3) (Homo sapiens (Human), UniProt Q8TBC4)"
recorded_measurement = 57.8

[[record]]
molecule = "NS(=O)(=O)OCC1CC(n2nnc3c(NCCCc4ccccc4)ncnc32)CC1O (centres unmarked) [Compound S7]"
assay_system = "NAE enzyme (human recombinant APPBP1/UBA3) (Homo sapiens (Human), UniProt Q8TBC4)"
recorded_measurement = 96.1

[[record]]
molecule = "NS(=O)(=O)OCC1CC(n2nnc3c(NC4CCCC4)ncnc32)CC1O (centres unmarked) [Compound S21]"
assay_system = "NAE enzyme (human recombinant APPBP1/UBA3) (Homo sapiens (Human), UniProt Q8TBC4)"
recorded_measurement = 48.2


Q. // inhibition at 10 µM lookup, key: NS(=O)(=O)OCC1CC(n2nnc3c(NCc4cccs4)ncnc32)CC1O (centres unmarked) [Compound S3]
A. 98.8

Q. Same again, this time with NS(=O)(=O)OCC1CC(n2nnc3c(NCc4ccco4)ncnc32)CC1O (centres unmarked) [Compound S4]
A. 98.6

* * *

assay-system: NAE enzyme (human recombinant APPBP1/UBA3) (Homo sapiens (Human), UniProt Q8TBC4)
assay-overview: Inhibition of NAE enzyme activity at the molecular level (HTRF)
conditions: NAE enzyme activity, HTRF
parameter-measured: IC50

Here are 2 compounds together with their reported answers.
[[record]]
compound = "NS(=O)(=O)OCC1CC(n2nnc3c(NCCc4cccs4)ncnc32)CC1O (stereo not drawn) [Compound S5]"
parameter_measured = "IC50"
recorded_measurement = "100 to 1000 nM"

[[record]]
compound = "NS(=O)(=O)OCC1CC(n2nnc3c(NCCCc4ccccc4)ncnc32)CC1O (stereo not drawn) [Compound S7]"
parameter_measured = "IC50"
recorded_measurement = "100 to 1000 nM"


Q. // IC50 lookup, key: CN1CCC2(CC1)C[C@H](Nc1ncnc3c1nnn3C1CC(O)C(COS(N)(=O)=O)C1)c1ccccc12 (stereo partly drawn) [Compound S15]
A. 100 to 1000 nM

* * *

// values below are reported inhibition at 10 µM
assay-system: NAE enzyme (human recombinant APPBP1/UBA3) (Homo sapiens (Human), UniProt Q8TBC4)
assay-overview: Inhibition of NAE enzyme activity at the molecular level (HTRF)
Type: biochemical
conditions: 2 h; read-out: IR (10 μM)
Just the number please, in %, no unit attached.

Here are 3 molecules together with their reported answers.
[[record]]
molecule = "NS(=O)(=O)OCC1CC(n2nnc3c(N[C@H]4CC5(CCNCC5)c5ccccc54)ncnc32)CC1O (stereo partly shown)"
uom = "%"
recorded_measurement = 91.4

[[record]]
molecule = "NS(=O)(=O)OCC1CC(n2nnc3c(NCc4ccccc4F)ncnc32)CC1O (stereo not shown)"
uom = "%"
recorded_measurement = 99.5

[[record]]
molecule = "CCCCCCNc1ncnc2c1nnn2C1CC(O)C(COS(N)(=O)=O)C1 (stereo not shown)"
uom = "%"
recorded_measurement = 98.3


Please find the next molecule below.
Q. // inhibition at 10 µM lookup, key: NS(=O)(=O)OC[C@@H]1C[C@@H](n2nnc3c(N[C@@H]4C[C@H]4c4ccc(F)c(F)c4)ncnc32)CC1O (stereo partly shown)
A. 85.2

* * *

assay-system: NAE enzyme (human recombinant APPBP1/UBA3) (Homo sapiens (Human))
assay-overview: Inhibition of NAE enzyme activity at the molecular level (HTRF)
Type: biochemical
conditions: 2 h; read-out: IR (10 μM)
parameter-measured: inhibition at 10 µM
A complete answer gives the number and then names the unit.

[[record]]
compound = "NS(=O)(=O)OCC1CC(n2nnc3c(N[C@@H]4c5ccccc5C[C@@H]4O)ncnc32)CC1O (stereo partly shown)"
recorded_measurement = "98.3%"

[[record]]
compound = "CN1CCC2(CC1)C[C@H](Nc1ncnc3c1nnn3C1CC(O)C(COS(N)(=O)=O)C1)c1ccccc12 (stereo partly shown)"
recorded_measurement = "77%"

[[record]]
compound = "NS(=O)(=O)OCC1CC(n2nnc3c(Nc4n[nH]c5ccccc45)ncnc32)CC1O (stereo not shown)"
recorded_measurement = "7.9%"


Please find the next compound below.
Q. // inhibition at 10 µM lookup, key: NS(=O)(=O)OCC1CC(n2nnc3c(Nn4ccc5ccccc54)ncnc32)CC1O (stereo not shown)
A. 43.3%

* * *

assay-system: NAE enzyme (human recombinant APPBP1/UBA3) (Homo sapiens (Human), UniProt Q8TBC4)
assay-overview: Inhibition of NAE enzyme activity at the molecular level (HTRF)
Assay type: biochemical
conditions: 2 h, read-out: IR (10 μM)
parameter-measured: inhibition at 10 µM (%)
Just the number please, in %, no unit attached.

[[record]]
compound = "NS(=O)(=O)OCC1CC(n2nnc3c(N[C@H]4CCc5ccccc54)ncnc32)CC1O (some centres unmarked) [Compound S1]"
assay_system = "NAE enzyme (human recombinant APPBP1/UBA3) (Homo sapiens (Human), UniProt Q8TBC4)"
parameter_measured = "inhibition at 10 µM"
recorded_measurement = 99

[[record]]
compound = "NS(=O)(=O)OCC1CC(n2nnc3c(NCCc4ccccc4)ncnc32)CC1O (centres unmarked) [Compound S6]"
assay_system = "NAE enzyme (human recombinant APPBP1/UBA3) (Homo sapiens (Human), UniProt Q8TBC4)"
parameter_measured = "inhibition at 10 µM"
recorded_measurement = 95.8

[[record]]
compound = "COC(=O)[C@H]1C=C[C@@H](Nc2ncnc3c2nnn3C2CC(O)C(COS(N)(=O)=O)C2)C1 (some centres unmarked) [Compound S20]"
assay_system = "NAE enzyme (human recombinant APPBP1/UBA3) (Homo sapiens (Human), UniProt Q8TBC4)"
parameter_measured = "inhibition at 10 µM"
recorded_measurement = 84.8

[[record]]
compound = "NS(=O)(=O)OCC1CC(n2nnc3c(NCCc4cccs4)ncnc32)CC1O (centres unmarked) [Compound S5]"
assay_system = "NAE enzyme (human recombinant APPBP1/UBA3) (Homo sapiens (Human), UniProt Q8TBC4)"
parameter_measured = "inhibition at 10 µM"
recorded_measurement = 95.2


Q. // inhibition at 10 µM lookup, key: NS(=O)(=O)OC[C@@H]1C[C@@H](n2ccc3c(N[C@H]4CCc5ccccc54)ncnc32)C[C@@H]1O [MLN4924, reference compound]
A. 98.6
